target: DNMT1 (Homo sapiens)
Sequence (P26358 whole entry): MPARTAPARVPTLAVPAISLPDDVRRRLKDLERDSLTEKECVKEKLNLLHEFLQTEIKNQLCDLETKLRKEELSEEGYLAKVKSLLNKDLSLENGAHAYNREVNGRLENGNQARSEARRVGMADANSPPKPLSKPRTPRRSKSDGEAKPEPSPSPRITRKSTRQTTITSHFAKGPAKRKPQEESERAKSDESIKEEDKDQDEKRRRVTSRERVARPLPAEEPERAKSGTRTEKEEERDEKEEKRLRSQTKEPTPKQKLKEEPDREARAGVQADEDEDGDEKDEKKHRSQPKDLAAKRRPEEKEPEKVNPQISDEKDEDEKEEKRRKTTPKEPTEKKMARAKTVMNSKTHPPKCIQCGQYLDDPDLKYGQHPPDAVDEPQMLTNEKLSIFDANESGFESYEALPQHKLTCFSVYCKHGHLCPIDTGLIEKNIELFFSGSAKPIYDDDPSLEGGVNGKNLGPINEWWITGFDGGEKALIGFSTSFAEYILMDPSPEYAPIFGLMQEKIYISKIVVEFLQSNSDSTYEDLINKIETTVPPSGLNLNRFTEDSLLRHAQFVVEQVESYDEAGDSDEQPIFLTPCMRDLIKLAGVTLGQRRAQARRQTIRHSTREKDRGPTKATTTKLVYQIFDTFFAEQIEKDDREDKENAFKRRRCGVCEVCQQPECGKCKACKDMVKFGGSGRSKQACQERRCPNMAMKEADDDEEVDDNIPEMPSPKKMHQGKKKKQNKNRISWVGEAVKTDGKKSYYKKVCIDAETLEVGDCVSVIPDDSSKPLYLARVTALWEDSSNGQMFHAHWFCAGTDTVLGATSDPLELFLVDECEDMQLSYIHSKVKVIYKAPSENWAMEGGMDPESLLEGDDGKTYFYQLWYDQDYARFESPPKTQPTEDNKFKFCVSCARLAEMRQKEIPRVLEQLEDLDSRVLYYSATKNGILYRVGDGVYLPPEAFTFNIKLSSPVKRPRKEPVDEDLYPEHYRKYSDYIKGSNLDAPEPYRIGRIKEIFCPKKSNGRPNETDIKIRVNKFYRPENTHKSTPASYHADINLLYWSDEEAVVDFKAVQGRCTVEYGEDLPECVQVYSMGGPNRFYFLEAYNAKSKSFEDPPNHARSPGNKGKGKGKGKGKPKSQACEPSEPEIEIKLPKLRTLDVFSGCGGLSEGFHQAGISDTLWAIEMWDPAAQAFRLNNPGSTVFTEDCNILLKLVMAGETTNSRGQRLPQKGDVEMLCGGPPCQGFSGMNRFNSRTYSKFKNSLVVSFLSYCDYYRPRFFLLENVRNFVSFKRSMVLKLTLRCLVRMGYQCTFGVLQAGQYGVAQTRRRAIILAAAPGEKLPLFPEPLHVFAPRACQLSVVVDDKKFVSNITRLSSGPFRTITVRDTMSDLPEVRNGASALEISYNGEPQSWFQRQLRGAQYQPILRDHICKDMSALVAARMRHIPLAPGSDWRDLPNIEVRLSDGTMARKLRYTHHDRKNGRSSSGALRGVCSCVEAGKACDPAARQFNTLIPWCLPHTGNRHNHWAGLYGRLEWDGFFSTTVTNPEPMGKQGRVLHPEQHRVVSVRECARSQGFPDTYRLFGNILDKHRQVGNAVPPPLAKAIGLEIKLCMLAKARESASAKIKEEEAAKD
OBSERVED_PROPERTY: pKd
# log scale: pKd equals minus log10 of the concentration in mol/L

State the measured pKd (DNMT1 (Homo sapiens)) of Cc1cccc2c(NCc3ccc(C(=O)Nc4ccccc4N)cc3)c3ccccc3nc12 8.72

// data source = paper PMC8197214
